- Experimental details: PBS Stability Assay
- Format: physicochemical
- Particulars: buffer, pH 7.4, 2 μM, phosphate buffered saline pH 7.4; read-out: PBS T½

Compound: COC(=O)N[C@H](C(=O)N[C@@H](Cc1ccc(C#Cc2cnc(N3CC4CCC(C3)N4C3COC3)nc2)cc1)[C@H](CN(Cc1c(F)cc(-c2ccn(C(F)F)n2)cc1F)NC(=O)[C@@H](NC(=O)OC)C(C)(C)C(F)(F)F)OC(=O)CC(C)(C)c1c(CC(=O)N2CCN(CC(=O)O)CC2)cc(C)cc1OP(=O)(O)O)C(C)(C)C(F)(F)F [Example 82]
half-life at 2 μM, h: 6.71
//
Compound: COC(=O)N[C@H](C(=O)N[C@@H](Cc1ccc(C#Cc2cnc(N3CC4CCC(C3)N4C3COC3)nc2)cc1)[C@H](CN(Cc1c(F)cc(-c2ccn(C(F)F)n2)cc1F)NC(=O)[C@@H](NC(=O)OC)C(C)(C)C(F)(F)F)OC(=O)OCOC(=O)CC(C)(C)c1c(CC(=O)N2CCN(S(=O)(=O)N(C)C)CC2)cc(C)cc1OP(=O)(O)O)C(C)(C)C(F)(F)F [Example 86]
half-life at 2 μM, h: 2.59

Entry source: patent US20250051375A1
